target: GDP-bound KRAS protein (aa 1-169), containing both G12D and C118A amino acid substitutions (Homo sapiens (Human), UniProt P01116, C118A/G12D); assay: KRAS G12D Coupled Nucleotide Exchange Assay; assay type: biochemical; settings: read-out: KRAS G12D Coupled Exchange IC50
Sequence (P01116 other isoform, or with tags, fused parts or gaps G12D/C118A): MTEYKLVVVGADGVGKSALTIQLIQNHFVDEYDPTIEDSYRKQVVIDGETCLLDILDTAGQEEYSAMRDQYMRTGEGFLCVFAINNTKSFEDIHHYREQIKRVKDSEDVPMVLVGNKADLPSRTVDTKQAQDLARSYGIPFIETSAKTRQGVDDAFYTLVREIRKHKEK
Where a name gives a salt, the structure may show the parent alone.
readout: IC50 (nM)

// solved cases for IC50 follow
Cc1c2ncc3c(nc(OC[C@@]45CCCN4C[C@H](F)C5)nc13)N1CCOC[C@H](C1)OC(=O)OCCCc1c(Cl)cc3[nH]ncc3c1-2 (atropisomer, axis not shown) [Example 341]
6
CN1C[C@H](F)C[C@H]1COc1nc2c3cnc(c(F)c3n1)-c1c(c(Cl)cc3[nH]ncc13)CCCCC(=O)O[C@@H]1CCCCN2C1 [Example 85]
4
C[C@H](Oc1nc2c3cnc(c(F)c3n1)-c1c(c(Cl)cc3[nH]ncc13)CCCOC(=O)O[C@@H]1COCCN2C1)[C@@H]1CCCN1C [Example 204]
16

[P] O=C1CCCc2c(F)ccc3cccc(c23)-c2ncc3c(nc(OC[C@@]45CCCN4C[C@H](F)C5)nc3c2F)N2CCOC[C@H](C2)N1 [Example 70]
[Q] C[C@@]12CCCCN(C1)c1nc(OC[C@@]34CCCN3C[C@H](F)C4)nc3c(F)c(ncc13)-c1c(c(Cl)cc3[nH]ncc13)CCCOC(=O)N2 [Example 290]
Exercise: compare P and Q ; which one has the greater IC50? // respond with label for picked entry
P
(P: 274 nM, Q: 2 nM)

[A] Cc1cc2[nH]ncc2c2c1CCCCC(=O)N1CC3CCN(CC3C1)c1nc(OC[C@@]34CCCN3C[C@H](F)C4)nc3c(F)c-2ncc13 (mixture of isomers) [Example 57]
[B] O=C1OCCc2c(Cl)cc3[nH]ncc3c2-c2ncc3c(nc(OC[C@@]45CCCN4C[C@H](F)C5)nc3c2F)N2CCC[C@]3(C2)C[C@H](C3)O1 [Example 249]
Exercise: compare A and B ; which one has the greater IC50? // respond with label for picked entry
A

[1] C[C@@]12CCCN(C1)c1nc(OC[C@@]34CCCN3C[C@H](F)C4)nc3c(F)c(ccc13)-c1cc(O)cc3ccc(F)c(c13)CCC(F)C(=O)N2 (mixture of isomers) [Example 17, 2,2,2-trifluoroacetate salt]
[2] Cc1cc2[nH]ncc2c2c1CCOC(=O)O[C@H]1C[C@]3(CCCN(C3)c3nc(OC[C@@H]4CCCN4C)nc4c(F)c-2ncc34)C1 (single isomer, unassigned) [Example 326]
Exercise: compare 1 and 2 ; which one has the greater IC50? // respond with label for picked entry
1

----------
target: GDP-bound KRAS protein (aa 1-169), containing both G12D and C118A amino acid substitutions (Homo sapiens (Human), UniProt P01116, C118A/G12D); assay: KRAS G12D Coupled Nucleotide Exchange Assay; type: biochemical; details: read-out: KRAS G12D Coupled Exchange IC50
readout: IC50 (nM)

Fc1c2ncc3c(nc(OC[C@@]45CCCN4C[C@H](F)C5)nc13)N1CCC[C@H](C1)Cn1cc(cn1)/C=C\c1c(Cl)cc3[nH]ncc3c1-2 [Example 147]
13

[A] Fc1c2ncc3c(nc(OC[C@@]45CCCN4C[C@H](F)C5)nc13)N1CC[C@@H](COCCCCc3c(Cl)cc4[nH]ncc4c3-2)C1 [Example 254]
[B] C[C@]12CCCN(C1)c1nc(OC[C@@]34CCCN3C[C@H](F)C4)nc3c(F)c(ncc13)-c1cccc3ccc(F)c(c13)CCOC(=O)N2 [Example 78]
Exercise: compare A and B ; which one has the greater IC50? // respond with label for picked entry
B

[I] Cc1cc2[nH]ncc2c2c1C[C@@H](C)CCOC[C@@H]1CCCN(C1)c1nc(OC[C@@]34CCCN3C[C@H](F)C4)nc3c(F)c-2ncc13 [Example 250]
[II] O=C1OCCCc2c(Cl)cc3[nH]ncc3c2-c2ncc3c(nc(OCC45CCCN4CCC5)nc3c2F)N2CCOC[C@H](C2)O1 [Example 198]
# return whichever of I and II has the smaller IC50 // respond with label for picked entry
II
(II: 1 nM, I: 6 nM)

[a] O=C1N[C@H]2CN(C[C@H]3C[C@H]32)c2nc(OC[C@@]34CCCN3C[C@H](F)C4)nc3c(F)c(ncc23)-c2c(c(Cl)cc3[nH]ncc23)CCC[C@H]1F [Example 173]
[b] Cc1cc2[nH]ncc2c2c1CCC(=O)OCCC1CCCN(C1)c1nc(OC[C@@]34CCCN3C[C@H](F)C4)nc3c(F)c-2ncc13 (mixture of isomers) [Example 107]
[c] Cc1cc2[nH]ncc2c2c1CCCCC(=O)O[C@]1(C)CCCN(C1)c1nc(OC[C@@]34CCCN3C[C@H](F)C4)nc3c(F)c-2ncc13 [Example 32]
Let's sort these by IC50, smallest first. Go ahead? Order the labels as requested and list them.
c, b, a

[1] Cc1cc2[nH]ncc2c2c1CCCC(=O)OCC1(O)CCCN(C1)c1nc(OC[C@@]34CCCN3C[C@H](F)C4)nc3c(F)c-2ncc13 (mixture of isomers) [Example 103]
[2] Fc1c2ncc3c(nc(OC[C@@]45CCCN4C[C@H](F)C5)nc13)N1CCC[C@@H](CCOCCCc3c(Cl)cc4[nH]ncc4c3-2)C1 [Example 139]
# return whichever of 1 and 2 has the smaller IC50 // respond with label for picked entry
2
(2: 3 nM, 1: 32 nM)

[I] Cc1cc2[nH]ncc2c2c1CCCCO[C@@H](C)[C@H]1CN(CCO1)c1nc(OC[C@@]34CCCN3C[C@H](F)C4)nc3c(F)c-2ncc13 [Example 242]
[II] Cc1cc2[nH]ncc2c2c1CCCC(F)C(=O)N[C@@H]1CCCCN(C1)c1nc(OC[C@@]34CCCN3C[C@H](F)C4)nc3c(F)c-2ncc13 (single isomer, unassigned) [Example 159]
Exercise: compare I and II ; which one has the greater IC50? // respond with label for picked entry
I
